# System: Staphylococcus aureus
# protocol_notes: Antibacterial activity against Staphylococcus aureus K1640 bearing S84L mutant GyrA and S80Y mutant GrlA by microdilution technique
# Assay type: functional
measured_quantity: MIC

O=C(O)c1cn(C2CC2)c2cc(N3CCNCC3)c(F)cc2c1=O [CIPROFLOXACIN]    > 10 µg/mL
O=C(O)c1cn(C2CC2)c2cc(N3CCC4=C(C3)C(O)CCS4)c(F)cc2c1=O (centres undefined)    > 10 µg/mL
CO/N=C1\CCSC2=C1CN(c1c(N)cc3c(=O)c(C(=O)O)cn(C4CC4)c3c1C)CC2    > 10 µg/mL
CC1CSC2=C(CN(c3cc4c(cc3F)c(=O)c(C(=O)O)cn4C3CC3)CC2)C1=O (centres undefined)    > 10 µg/mL
COc1c(N2C[C@@H]3CCCN[C@@H]3C2)c(F)cc2c(=O)c(C(=O)O)cn(C3CC3)c12 [MOXIFLOXACIN]    2.5 µg/mL
CC1CSC2=C(CN(c3cc4c(cc3F)c(=O)c(C(=O)O)cn4C3CC3)CC2)/C1=N/O (centres undefined)    > 10 µg/mL
Cc1c(N2CCc3ccccc3C2)c(N)cc2c(=O)c(C(=O)O)cn(C3CC3)c12    0.63 µg/mL
Cc1c(N2CCC3=C(C2)C(=O)C(C)CS3)c(N)cc2c(=O)c(C(=O)O)cn(C3CC3)c12 (centres undefined)    > 10 µg/mL
Cc1c(N2CCC3=C(C2)C(=O)CCS3)c(N)cc2c(=O)c(C(=O)O)cn(C3CC3)c12    > 10 µg/mL

====

# Tested on: Staphylococcus aureus
# protocol_notes: Antibacterial activity against Staphylococcus aureus SA-K1902 bearing norA- deficient mutation by microdilution technique
# Format: functional
measured_quantity: MIC (µg/mL)

CO/N=C1/C2=C(CCN(c3c(N)cc4c(=O)c(C(=O)O)cn(C5CC5)c4c3C)C2)SCC1C (stereo unspecified)    6.25
CO/N=C1\CCSC2=C1CN(c1cc3c(cc1F)c(=O)c(C(=O)O)cn3C1CC1)CC2    1.25
CO/N=C1/C2=C(CCN(c3cc4c(cc3N)c(=O)c(C(=O)O)cn4C3CC3)C2)SCC1C (stereo unspecified)    3.13
O=C(O)c1cn(C2CC2)c2cc(N3CCC4=C(C3)/C(=N/O)CCS4)c(F)cc2c1=O    0.63
Cc1c(N2CCC3=C(C2)/C(=N/O)C(C)CS3)c(N)cc2c(=O)c(C(=O)O)cn(C3CC3)c12 (stereo unspecified)    0.31
O=C(O)c1cn(C2CC2)c2cc(N3CCC4=C(C3)C(O)CCS4)c(F)cc2c1=O (stereo unspecified)    0.04
